Biological target: T1, human FOLR1 protein, His Tag (ACRO-FO1-H52H1) (human, UniProt P15328 25-233)
T1 construct: not shown: His tag
T1 sequence (P15328 25-233 limits assumed): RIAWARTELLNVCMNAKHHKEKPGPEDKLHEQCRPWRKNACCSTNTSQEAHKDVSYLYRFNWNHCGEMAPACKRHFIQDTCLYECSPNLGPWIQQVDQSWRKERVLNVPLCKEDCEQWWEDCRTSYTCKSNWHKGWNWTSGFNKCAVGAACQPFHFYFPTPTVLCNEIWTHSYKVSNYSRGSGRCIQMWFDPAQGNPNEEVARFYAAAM
Test: ELISA OD450 on human FOLR1 divided by OD450 of IgG level ELISA
property: Target binding/IgG level

Some solved cases for reference:
[[record]]
binder = "anti-FOLR1 antibody F100 (antibody, V domains shown, also called clone F100) VH: EVQLLESGGGVVQPGRSLRLSCAASGFTFSSYGMHWVRQAPGKGLEWVAVISYDGSNKYYADSVKGRFTISRPNSKNTLYLQMNSLRAEDTAVYYCARPRAYYGAYGSSFDYWGQGTQVTVSS VL: EIVMTQSPSSVSASVGDRVAITCRASQGISSWLAWYQQKPGKAPKLLIYAASSLQSGVPSRFSGSGSGTDFTLTISSLQPEDFATYYCQQSYSTPLTFGGGTKVDIK"
val = "1.48 ratio of OD450"

[[record]]
binder = "anti-FOLR1 antibody F1 (antibody, V domains shown, also called clone F1) VH: EVQLLESGGGVVQPGRSLRLSCAASGFTFSSYGMHWVRQAPGKGLEWVAVISYDGSNKYYADSVKGRFTISRDNSKNTLYLQMNSLRAEDTAVYYCARPRAYYGAYGSSFDYWGQGTQVTVSS VL: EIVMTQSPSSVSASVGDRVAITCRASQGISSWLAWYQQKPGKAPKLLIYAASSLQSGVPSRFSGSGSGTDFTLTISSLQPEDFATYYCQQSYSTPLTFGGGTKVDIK"
val = "1.08 ratio of OD450"


// lookup Target binding/IgG level for anti-FOLR1 antibody F131 (antibody, V domains shown, also called F131 mAb; clone F131) VH: EVQLLESGGGVVQPGRSLRLSCAASGFTFSSYGMHWVRQAPGKGLEWVAVISYDGSNKYYADSVKGRFTISRANSKNTLYLQMNSLRAEDTAVYYCARPRAYYGAYGSSFDYWGQGTQVTVSS VL: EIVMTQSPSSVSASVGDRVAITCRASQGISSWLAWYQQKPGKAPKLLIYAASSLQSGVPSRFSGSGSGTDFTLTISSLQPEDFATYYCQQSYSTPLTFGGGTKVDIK 1.02 ratio of OD450
